# TARGET_UNDER_TEST: T1, Human complement Factor D, mature (human, UniProt P00746 27-253)
# T1 construct: In the TR-FRET assay the factor D was bought from Complement Technology; In the hemolysis assay it was the factor D of C1q-depleted human serum; also called human Factor D; hFD
# ASSAY_PROTOCOL: SPR (Biacore T200): Fab captured with anti-huFab kit, human Factor D injected, 25 C, 1:1 model;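 further: sensorgrams were corrected by subtracting a blank injection of running buffer before fitting kinetic and affinity constants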
ENDPOINT: kon (M⁻¹ s⁻¹)

- hu20D12.v2.15 Fab (Fab, V domains shown) VH: EVQLVQSGAEVKKPGASVKVSCKASGYTFTSYYMYWVRQAPGQGLEWIGEINPYSGETNFNEKFKSRATLTVDTSTSTAYLELSSLRSEDTAVYYCAREGGFAYWGQGTLVTVSS VL: DIQMTQSPSSLSASVGDRVTITCKASQNVDTDVAWFQQKPGKAPKGLIRSASSRYSGVPSRFSGSGSGTDFTLTISSLQPEDFATYYCQQYNNYPLTFGQGTKVEIKR: 1.9e+07
- hu20D12.v2.11 Fab (Fab, V domains shown) VH: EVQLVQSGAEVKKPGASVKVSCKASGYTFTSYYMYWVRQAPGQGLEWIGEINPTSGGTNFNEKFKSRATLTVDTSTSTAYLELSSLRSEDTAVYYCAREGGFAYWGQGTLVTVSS VL: DIQMTQSPSSLSASVGDRVTITCKASQNVDTDVAWFQQKPGKAPKGLIYSASSRRSGVPSRFSGSGSGTDFTLTISSLQPEDFATYYCQQYNNYPLTFGQGTKVEIKR: 3e+06
- hu20D12.v2.13 Fab (Fab, V domains shown) VH: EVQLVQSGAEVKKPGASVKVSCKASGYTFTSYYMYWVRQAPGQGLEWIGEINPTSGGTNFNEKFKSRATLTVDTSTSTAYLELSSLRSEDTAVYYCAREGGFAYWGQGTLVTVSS VL: DIQMTQSPSSLSASVGDRVTITCKASQNVDTDVAWFQQKPGKAPKGLIRSASSRYSGVPSRFSGSGSGTDFTLTISSLQPEDFATYYCQQYENYPLTFGQGTKVEIKR: 4.1e+07

Values compiled from patent US20170145112A1.
